The entries below are paired with their reported LDH release cytotoxicity.
Test system: HepaRG
Assay: LDH release cytotoxicity, % of total lysis control; higher = more cytotoxic
Settings: 31.6228 µM; 48 h
Property: LDH release cytotoxicity (%)

molecule="CC(Cc1ccc(OCC(=O)O)cc1)NCC(O)c1csc(C(F)(F)F)n1 (stereo not drawn)" property="LDH release cytotoxicity" numeric_result=0.839
molecule="CCON=C(CC)C1C(=O)CC(c2c(C)cc(C)cc2C)CC1=O (stereo not drawn)" property="LDH release cytotoxicity" numeric_result=-1.88
molecule="[N-]=[N+]=[N-] [Sodium azide]" property="LDH release cytotoxicity" numeric_result=-0.413

---

Tested on: HepaRG
Assay: LDH release cytotoxicity, % of total lysis control; higher = more cytotoxic
Conditions: 0.3162278 µM; 48 h
The entries below are paired with their reported LDH release cytotoxicity.
Property: LDH release cytotoxicity (%)

molecule=CCCCCOC(=O)COc1cc(N2C(=O)C3=C(CCCC3)C2=O)c(F)cc1Cl numeric_result=-0.329
molecule="CC(C)(C)C(O)C(Cc1ccc(Cl)cc1)n1cncn1 (stereo not drawn)" numeric_result=-1.02
molecule="O=C(NC(c1ccccc1)C1CCCCN1)c1cccc(C(F)(F)F)c1Cl (stereo not drawn)" numeric_result=-0.0611
molecule=CCC(C)(C)c1ccc(O)c(C(C)(C)CC)c1 numeric_result=-0.993
molecule="CCCCC(CC)COC(=O)CCCCCCCCC(=O)OCC(CC)CCCC (stereo not drawn) [Bis(2-ethylhexyl) decanedioate]" numeric_result=-10.7
molecule=COC(=O)NS(=O)(=O)c1ccc(N)cc1 numeric_result=-0.821
molecule="c1ccc(NNc2ccccc2)cc1 [1,2-Diphenylhydrazine]" numeric_result=-1.76
molecule=CCOc1cc(Oc2ccc(C(F)(F)F)cc2Cl)ccc1[N+](=O)[O-] numeric_result=-0.848
molecule=Nc1ccc2ccccc2c1 numeric_result=-0.801
molecule=N[C@@H](Cc1c[nH]c2ccccc12)C(=O)O numeric_result=-1.1
molecule=COc1nc(NC(C)C)nc(NC(C)C)n1 numeric_result=-1.1
molecule=O=[N+]([O-])c1c(Cl)c(Cl)c(Cl)c(Cl)c1Cl numeric_result=-1.32
molecule=O=C(c1ccccc1)C1CCCCC1 numeric_result=-0.957

---

Test system: HepaRG
Assay: LDH release cytotoxicity, % of total lysis control; higher = more cytotoxic
Conditions: 0.1 µM; 48 h
Property: LDH release cytotoxicity (%)

smiles_entry=CNC(=O)ON=C(SC)C(=O)N(C)C property="LDH release cytotoxicity" numeric_result=-0.802
smiles_entry=CSC(C)=NOC(=O)N(C)SN(C)C(=O)ON=C(C)SC property="LDH release cytotoxicity" numeric_result=0.37
smiles_entry=Oc1ccc(C(c2ccc(O)cc2)(C(F)(F)F)C(F)(F)F)cc1 property="LDH release cytotoxicity" numeric_result=-1.4
smiles_entry=CCCCCC(=O)O property="LDH release cytotoxicity" numeric_result=-1.97

---

System: HepaRG
Test: LDH release cytotoxicity, % of total lysis control; higher = more cytotoxic
Details: 0.03162 µM; 48 h
The entries below are paired with their reported LDH release cytotoxicity.
Property: LDH release cytotoxicity

compound="Oc1cccc(O)c1 [Resorcinol]" property="LDH release cytotoxicity" result=-0.658%
compound="CCCCC(CC)COC(=O)CCCCC(=O)OCc1ccccc1 (stereo not drawn) [Benzyloctyl adipate]" property="LDH release cytotoxicity" result=-0.155%
compound="c1cc(-c2ccncc2)ccn1 [4,4'-Bipyridine]" property="LDH release cytotoxicity" result=-0.85%
compound="CC(C)(C)c1ccc(O)c(C(C)(C)C)c1 [2,4-Di-tert-butylphenol]" property="LDH release cytotoxicity" result=-2.05%
compound=CCCOc1ccc(S(=O)(=O)N2CCN(CC)CC2)cc1-c1nc2c(CC)n(Cc3ccccn3)nc2c(=O)[nH]1 property="LDH release cytotoxicity" result=-0.95%
compound="C1CC2OC2CC1C1CO1 (stereo not drawn) [4-Vinyl-1-cyclohexene dioxide]" property="LDH release cytotoxicity" result=-0.357%
compound="CCNc1nc(Cl)nc(NC(C)(C)C#N)n1 [Cyanazine]" property="LDH release cytotoxicity" result=-0.628%
compound="CC(C)C1(C)N=C(c2ncccc2C(=O)O)NC1=O (stereo not drawn) [Imazapyr]" property="LDH release cytotoxicity" result=-1.83%
compound=CC(C)(O)c1coc(S(=O)(=O)NC(=O)Nc2c3c(cc4c2CCC4)CCC3)c1 property="LDH release cytotoxicity" result=-0.467%
compound="COC(=O)C(C)Oc1ccc(Oc2ccc(Cl)cc2Cl)cc1 (racemic) [Methyl (RS)-2-[4-(2,4-dichlorophenoxy)phenoxy]propionate]" property="LDH release cytotoxicity" result=-0.971%
compound="CC(c1ccc(O)cc1)(c1ccc(O)cc1)c1ccc(O)cc1 [4,4',4''-Ethane-1,1,1-triyltriphenol]" property="LDH release cytotoxicity" result=-1.89%
compound="CC(C)(C)C(O)C(=Cc1ccc(Cl)cc1Cl)n1cncn1 (stereo not drawn) [Diniconazole]" property="LDH release cytotoxicity" result=-0.57%
compound="CC1=CC(=O)CC(C)(C)C1 [Isophorone]" property="LDH release cytotoxicity" result=-0.205%
compound="CCCCCCCCOC(=O)c1cc(O)c(O)c(O)c1 [Octyl gallate]" property="LDH release cytotoxicity" result=-1.14%
compound="O=Cc1ccco1 [Furfural]" property="LDH release cytotoxicity" result=-1.57%
compound="Cc1ccc(C)c(O)c1 [2,5-Dimethylphenol]" property="LDH release cytotoxicity" result=-1.02%
compound="CCCN(CC)CC1COC2(CCC(C(C)(C)C)CC2)O1 (stereo not drawn) [Spiroxamine]" property="LDH release cytotoxicity" result=-0.782%
compound="O=C(c1ccccc1)C1CCCCC1 [Cyclohexylphenylketone]" property="LDH release cytotoxicity" result=-1.79%
